Data credit: patent US6670360B2

Target: proton potassium-adenosine triphosphatase (H+·K+-ATPase) (Sus scrofa)
Construct: A microsomal fraction prepared in accordance with the method of Sachs, et al; from tissue; host or cells: swine gastric mucosa, microsomal fraction (density gradient ultracentrifugation)
Sequence (P19156 2-1034 limits assumed): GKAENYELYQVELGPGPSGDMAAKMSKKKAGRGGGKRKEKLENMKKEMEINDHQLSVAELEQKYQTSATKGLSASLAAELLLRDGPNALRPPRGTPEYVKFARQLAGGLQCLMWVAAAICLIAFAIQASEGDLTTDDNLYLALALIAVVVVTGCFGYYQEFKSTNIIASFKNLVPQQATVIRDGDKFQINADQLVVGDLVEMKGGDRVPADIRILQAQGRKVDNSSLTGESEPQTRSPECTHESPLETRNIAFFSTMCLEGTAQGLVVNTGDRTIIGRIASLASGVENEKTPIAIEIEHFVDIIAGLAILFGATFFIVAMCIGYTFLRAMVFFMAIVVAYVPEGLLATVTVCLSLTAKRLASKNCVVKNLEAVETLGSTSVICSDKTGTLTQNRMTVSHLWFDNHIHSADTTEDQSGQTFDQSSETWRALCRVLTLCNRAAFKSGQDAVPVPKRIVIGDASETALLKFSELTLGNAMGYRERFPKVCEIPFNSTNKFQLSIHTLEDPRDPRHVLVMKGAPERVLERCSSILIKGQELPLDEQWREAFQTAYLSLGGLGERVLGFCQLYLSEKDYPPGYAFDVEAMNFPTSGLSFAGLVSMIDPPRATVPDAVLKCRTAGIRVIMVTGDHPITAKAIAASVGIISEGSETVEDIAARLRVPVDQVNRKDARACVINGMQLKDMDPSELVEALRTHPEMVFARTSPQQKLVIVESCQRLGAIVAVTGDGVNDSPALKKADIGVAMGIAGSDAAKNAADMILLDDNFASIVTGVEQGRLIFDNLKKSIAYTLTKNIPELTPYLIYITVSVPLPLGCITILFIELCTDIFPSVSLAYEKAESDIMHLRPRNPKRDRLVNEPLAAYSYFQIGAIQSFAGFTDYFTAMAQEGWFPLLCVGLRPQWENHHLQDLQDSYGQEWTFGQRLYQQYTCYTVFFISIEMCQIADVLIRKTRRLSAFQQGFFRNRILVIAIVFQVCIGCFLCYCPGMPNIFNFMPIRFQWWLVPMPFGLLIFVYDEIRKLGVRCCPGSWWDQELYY
Sequence (P18434 whole entry partner): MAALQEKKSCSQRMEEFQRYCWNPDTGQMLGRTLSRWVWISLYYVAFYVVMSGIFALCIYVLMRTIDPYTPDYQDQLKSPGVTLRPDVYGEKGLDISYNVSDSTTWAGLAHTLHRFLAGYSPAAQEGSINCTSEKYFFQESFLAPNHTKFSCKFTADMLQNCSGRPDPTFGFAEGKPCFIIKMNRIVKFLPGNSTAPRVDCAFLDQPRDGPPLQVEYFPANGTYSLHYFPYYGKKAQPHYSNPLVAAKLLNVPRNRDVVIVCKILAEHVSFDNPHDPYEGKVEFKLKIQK
Test: Test on activity of proton potassium-adenosine triphosphatase (H+·K+-ATPase)
Assay type: biochemical
Settings: microsomal fraction of swine gastric mucosal layer, pH 6.85, 37° C.; read-out: 50% inhibitory concentration (IC50) against proton-potassium-adenosine triphosphatase
measure-name: IC50

Complete the entry with IC50 for Cc1c(C)n(C[C@H]2C[C@@H]2C)c2c(OCc3ccc(F)cc3)nncc12
≤ 295 nM
